Run Description: Efflux ratio of permeability in human Caco2 cells
Assay type: ADME, cell-based
Condition Details: Caco-2
Endpoint Label: efflux ratio
Please respond with just the number, no unit label.

Q. What measured efflux ratio goes with Cc1cc(-c2cnc3[nH]cc(-c4ccc(C(=O)O)cc4)c3c2)cc2c1C(=O)N([C@@H](C)C1CC1)C2 ?
A. 46.6

---

Assayed Target: Phosphatidylinositol 4,5-bisphosphate 3-kinase catalytic subunit gamma isoform (Homo sapiens)
Run Description: Inhibition of PI3K p120gamma (unknown origin) using phosphatidylinositol 4,5-bisphosphate as substrate in presence of ATP incubated for 60 mins by ADP-Glo assay
pIC50: −log10 of the molar value.
Returns one of Fulfilled or Not fulfilled; Fulfilled when pIC50 is >= 8.

Q. // inclusive: pIC50 at least 8? input: Cc1cc(-c2cnc3[nH]cc(-c4ccc(C(C)(C)C(=O)O)cc4)c3c2)cc2c1C(=O)N([C@@H](C)C1CC1)C2
A. Fulfilled

Q. Record Cc1cc(-c2cnc3[nH]cc(-c4ccc(C(=O)O)c(C(F)(F)F)c4)c3c2)cc2c1C(=O)N([C@@H](C)C1CC1)C2 ; criterion: pIC50 no lower than 8. Met?
A. Fulfilled

Q. Check if pIC50 >= 8 (inclusive). Item: Cc1cc(-c2c[nH]c3ncc(-c4cc(C)c5c(c4)CN([C@@H](C)C4CC4)C5=O)cc23)ccc1CC(=O)O
A. Fulfilled

Q. Given the entry Cc1cc(-c2cnc3[nH]cc(-c4ccncc4)c3c2)cc2c1C(=O)N(C(C)(C)C)C2 , answer whether its pIC50 meets or surpasses 8.
A. Not fulfilled

Q. Is it the case that Cc1cc(-c2cnc3[nH]cc(-c4ccncc4)c3c2)cc2c1C(=O)N(CC(F)(F)F)C2 has pIC50 reaching or exceeding 8?
A. Not fulfilled

Q. Reported pIC50 at or above 8? Cc1cc(-c2cnc3[nH]cc(-c4ccc(C#N)cc4)c3c2)cc2c1C(=O)N([C@@H](C)C1CC1)C2
A. Not fulfilled

---

Assayed Target: Phosphatidylinositol 4,5-bisphosphate 3-kinase catalytic subunit gamma isoform (Homo sapiens)
Run Description: Inhibition of PI3K p120gamma (unknown origin) using phosphatidylinositol 4,5-bisphosphate as substrate in presence of ATP incubated for 60 mins by ADP-Glo assay
Give measured pIC50 for each item. Keep answers brief.
Recall that pIC50 is obtained by taking minus log10 of the concentration measured in molar.

Q. Record request: pIC50 value, item Cc1cc(-c2cnc3[nH]cc(-c4ccc(C5(C(=O)O)CC5)cc4)c3c2)cc2c1C(=O)N([C@@H](C)C1CC1)C2
A. 8.48

Q. What value of pIC50 has been recorded for this entry: C[C@@H](C1CC1)N1Cc2cc(-c3cnc4[nH]cc(-c5cnn(C)c5)c4c3)cc(C#N)c2C1=O
A. 8.43

Q. Quick one: pIC50 for CNS(=O)(=O)c1cc(-c2cnc3[nH]cc(-c4cnn(C)c4)c3c2)cc2c1C(=O)N([C@@H](C)C1CC1)C2 ?
A. 8.40

Q. Bench note: what pIC50 did Cc1ccc(-c2c[nH]c3ncc(-c4cc(C)c5c(c4)CN([C@@H](C)C4CC4)C5=O)cc23)cc1C(=O)O show?
A. 8.30

Q. Fill blank: measured pIC50 of the compound C[C@@H](C1CC1)N1Cc2cc(-c3cnc4[nH]cc(-c5cnn(C)c5)c4c3)cc(NS(C)(=O)=O)c2C1=O is ____.
A. 8.40

Q. Please look up its pIC50: Cc1cc(-c2cnc3[nH]cc(-c4ccn(C)c(=O)c4)c3c2)cc2c1C(=O)N([C@@H](C)C1CC1)C2
A. 7.59

Q. So what does the record say about pIC50 for Cc1cc(-c2cnc3[nH]cc(-c4ccccc4C(=O)O)c3c2)cc2c1C(=O)N([C@@H](C)C1CC1)C2 ?
A. 6.74

Q. Look up pIC50: Cc1cc(-c2cnc3[nH]cc(-c4ccc(CC(=O)O)cc4)c3c2)cc2c1C(=O)N([C@@H](C)C1CC1)C2
A. 8.59

---

Run Description: Intrinsic clearance in cryopreserved human hepatocytes assessed as per million cells at 0.5 uM by LC-MS/MS analysis
Format: ADME, cell-based, Hepatocyte
Would you mind telling me the reported CLH of each entry?
Report the value in µL/min/1e6 cells with no unit label.

Q. What value of CLH has been recorded for this entry: Cc1cc(-c2cnc3[nH]cc(-c4ccc(C(C)(C)C(=O)O)cc4)c3c2)cc2c1C(=O)N([C@@H](C)C1CC1)C2
A. 2.3

Q. Name the reported CLH value associated with the compound Cc1cc(-c2c[nH]c3ncc(-c4cc(C)c5c(c4)CN([C@@H](C)C4CC4)C5=O)cc23)cc(C)c1C(=O)O
A. 20

Q. Requested read-out: CLH. Entry: Cc1cc(-c2cnc3[nH]cc(-c4ccc(C5(C(=O)O)CC5)cc4)c3c2)cc2c1C(=O)N([C@@H](C)C1CC1)C2
A. 1.7

Q. // CLH lookup, key: Cc1cc(-c2c[nH]c3ncc(-c4cc(C)c5c(c4)CN([C@@H](C)C4CC4)C5=O)cc23)ccc1C(=O)O
A. 19

Q. What value of CLH has been recorded for this entry: Cc1cc(-c2c[nH]c3ncc(-c4cc5c(c(C(F)(F)F)c4)C(=O)N([C@@H](C)C4CC4)C5)cc23)cc(C)c1C(=O)O
A. 1.8

Q. Look up CLH: Cc1cc(-c2cnc3[nH]cc(-c4ccc(C(=O)O)cc4)c3c2)cc2c1C(=O)N([C@@H](C)C1CC1)C2
A. 24

Q. Look up CLH for this compound: Cc1cc(-c2cnc3[nH]cc(-c4ccc(CC(=O)O)cc4)c3c2)cc2c1C(=O)N([C@@H](C)C1CC1)C2
A. 6.9

Q. What CLH value was documented for this compound, Cc1cc(-c2c[nH]c3ncc(-c4cc(C)c5c(c4)CN([C@@H](C)C4CC4)C5=O)cc23)ccc1CC(=O)O ?
A. 8

Q. Could you share which CLH value was measured for C[C@@H](C1CC1)N1Cc2cc(-c3cnc4[nH]cc(-c5ccc(C6(C(=O)O)CC6)cc5)c4c3)cc(C(F)(F)F)c2C1=O ?
A. 2.6

---

Assayed Target: Phosphatidylinositol 4,5-bisphosphate 3-kinase catalytic subunit gamma isoform (Homo sapiens, UniProt P48736)
Sequence (P48736 whole entry, canonical isoform): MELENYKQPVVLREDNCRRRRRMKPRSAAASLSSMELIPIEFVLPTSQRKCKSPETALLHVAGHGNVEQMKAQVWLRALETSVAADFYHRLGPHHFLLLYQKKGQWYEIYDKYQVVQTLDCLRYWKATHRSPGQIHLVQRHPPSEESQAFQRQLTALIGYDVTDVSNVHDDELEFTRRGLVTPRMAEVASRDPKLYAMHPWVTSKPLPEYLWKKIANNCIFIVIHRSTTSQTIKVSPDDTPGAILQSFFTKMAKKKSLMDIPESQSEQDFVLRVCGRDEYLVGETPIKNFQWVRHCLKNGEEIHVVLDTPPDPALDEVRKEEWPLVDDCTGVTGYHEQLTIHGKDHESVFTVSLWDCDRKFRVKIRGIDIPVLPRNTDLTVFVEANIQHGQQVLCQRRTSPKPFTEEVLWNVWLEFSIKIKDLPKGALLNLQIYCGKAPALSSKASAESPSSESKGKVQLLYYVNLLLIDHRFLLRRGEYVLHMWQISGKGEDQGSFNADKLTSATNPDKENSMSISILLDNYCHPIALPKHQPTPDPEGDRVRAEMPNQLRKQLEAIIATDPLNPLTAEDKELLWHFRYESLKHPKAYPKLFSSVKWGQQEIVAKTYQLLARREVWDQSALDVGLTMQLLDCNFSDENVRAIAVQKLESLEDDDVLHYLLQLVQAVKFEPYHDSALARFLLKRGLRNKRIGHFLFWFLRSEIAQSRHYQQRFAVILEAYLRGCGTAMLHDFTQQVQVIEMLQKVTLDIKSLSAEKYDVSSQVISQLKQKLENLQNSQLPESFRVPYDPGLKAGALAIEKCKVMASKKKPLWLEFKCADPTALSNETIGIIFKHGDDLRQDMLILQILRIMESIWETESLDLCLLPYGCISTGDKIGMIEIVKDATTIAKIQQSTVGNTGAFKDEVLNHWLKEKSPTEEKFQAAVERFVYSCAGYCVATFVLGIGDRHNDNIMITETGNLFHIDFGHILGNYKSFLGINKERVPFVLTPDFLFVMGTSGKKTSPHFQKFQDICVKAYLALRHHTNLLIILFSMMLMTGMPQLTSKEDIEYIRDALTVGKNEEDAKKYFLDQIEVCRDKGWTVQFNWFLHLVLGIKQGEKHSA
Run Description: Inhibition of PI3Kgamma in human THP-1 cells assessed as reduction in Akt phosphorylation at S473 residue incubated for 60 mins measured after 120 mins by alphalisa assay
Format: cell-based
Endpoint Label: IC50 (nM)
Supply the numeric figure in nM, leaving out any unit text.

Q. # input compound: Cc1cc(-c2cnc3[nH]cc(C(=O)Nc4ccncc4)c3c2)cc2c1C(=O)N([C@@H](C)C1CC1)C2 ; wanted: its IC50
A. 1300

Q. Param item = Cc1cc(-c2cnc3[nH]cc(-c4ccncc4)c3c2)cc2c1C(=O)N(C1CCOCC1)C2 ; retrieve measured IC50.
A. 1000

Q. Consider the compound shown here: CNS(=O)(=O)c1cc(-c2cnc3[nH]cc(-c4cnn(C)c4)c3c2)cc2c1C(=O)N([C@@H](C)C1CC1)C2 What is its recorded IC50?
A. 70

Q. Query: IC50; subject: Cc1cc(-c2cnc3[nH]cc(-c4ccc(C(=O)O)c(C5CC5)c4)c3c2)cc2c1C(=O)N([C@@H](C)C1CC1)C2
A. 40

Q. Form field: reported IC50 of Cc1cc(-c2cnc3[nH]cc(-c4ccncc4)c3c2)cc2c1C(=O)N([C@@H](C)C1CC1)C2
A. 220

Q. Value lookup for IC50; key = Cc1cc(-c2c[nH]c3ncc(-c4cc5c(c(C(F)(F)F)c4)C(=O)N([C@@H](C)C4CC4)C5)cc23)ccc1C(=O)O
A. 40

Q. For Cc1cc(-c2cnc3[nH]cc(-c4ccn(C)c(=O)c4)c3c2)cc2c1C(=O)N([C@@H](C)C1CC1)C2 , what is its reported IC50?
A. 200

Q. Using the record for Cc1cc(-c2cnc3[nH]cc(C4CCNC4)c3c2)cc2c1C(=O)N([C@@H](C)C1CC1)C2 (stereo partly drawn) , report its IC50.
A. 3800

---

Run Description: Intrinsic clearance in rat hepatocytes assessed as per million cells
Type: ADME, cell-based, Hepatocyte
Exercise: state measured log10 of CLH for each of the molecules provided.
Values are log10 of CLH in µL/min/1e6 cells.

Q. Any idea what log10 of CLH was measured for Cc1cc(-c2c[nH]c3ncc(-c4cc(C)c5c(c4)CN([C@@H](C)C4CC4)C5=O)cc23)cc(C)c1C(=O)O ?
A. 1.66

Q. Fill in the blank: the reported log10 of CLH of Cc1cc(-c2c[nH]c3ncc(-c4cc(C)c5c(c4)CN([C@@H](C)C4CC4)C5=O)cc23)ccc1CC(=O)O is ____.
A. 1.36

Q. Consider the molecule shown here: Cc1cc(-c2cnc3[nH]cc(-c4ccc(CC(=O)O)cc4)c3c2)cc2c1C(=O)N([C@@H](C)C1CC1)C2 What is its recorded log10 of CLH?
A. 1.23

Q. Entry under review: Cc1cc(-c2c[nH]c3ncc(-c4cc5c(c(C(F)(F)F)c4)C(=O)N([C@@H](C)C4CC4)C5)cc23)ccc1C(=O)O . Reported log10 of CLH?
A. 0.30

Q. Given the entry Cc1cc(-c2cnc3[nH]cc(-c4ccc(C(C)(C)C(=O)O)cc4)c3c2)cc2c1C(=O)N([C@@H](C)C1CC1)C2 , report its measured log10 of CLH.
A. 1.43

Q. Which log10 of CLH reading was recorded for the molecule Cc1cc(-c2c[nH]c3ncc(-c4cc(C)c5c(c4)CN([C@@H](C)C4CC4)C5=O)cc23)ccc1C(=O)O ?
A. 1.71

Q. Using the record for C[C@@H](C1CC1)N1Cc2cc(-c3cnc4[nH]cc(-c5ccc(C6(C(=O)O)CC6)cc5)c4c3)cc(C(F)(F)F)c2C1=O , report its log10 of CLH.
A. 1.26

Q. Field request: log10 of CLH | item: Cc1cc(-c2cnc3[nH]cc(-c4ccc(C5(C(=O)O)CC5)cc4)c3c2)cc2c1C(=O)N([C@@H](C)C1CC1)C2
A. 1.20

Q. # input molecule: Cc1cc(-c2cnc3[nH]cc(-c4ccc(C(=O)O)cc4)c3c2)cc2c1C(=O)N([C@@H](C)C1CC1)C2 ; wanted: its log10 of CLH
A. 1.73
